- Tested on: 521955-158-R2-J5-PDC complex spheroids, viability
- protocol.summary: Anticancer human tumor 521955-158-R2-J5-PDC patient-derived pancreatic carcinoma cell line growth inhibition [RAS]
- condition.label: curve of first compound; second compound 0.316 µM
measured.parameter: IC50

Endpoint output: IC50 of CC1(O)CCCC1n1c(=O)c(C(F)F)cc2cnc(NC3CCN(S(C)(=O)=O)CC3)nc21 (stereo not given) + C=CC(=O)N1CCN(c2nc(OCC3CCCN3C)nc3c(F)c(-c4nc(N)cc(C)c4C(F)(F)F)c(Cl)cc23)C(C)C1 . Value?
6.02 µM

Continue with CCN1CCN(Cc2ccc(Nc3ncc(F)c(-c4cc(F)c5nc(C)n(C(C)C)c5c4)n3)nc2)CC1 + C#Cc1c(F)ccc2cc(O)cc(-c3ncc4c(N5CC6CCC(C5)N6)nc(OCC56CCCN5CC(F)C6)nc4c3F)c12
> 1 µM

Now consider CC1(C)CCC(Nc2ncc(C(F)(F)F)c(-c3c[nH]c4c(P(C)(C)=O)c(C#N)ccc34)n2)CN1 (stereo not given) + C=CC(=O)N1CCN(c2nc(OCC3CCCN3C)nc3c(F)c(-c4nc(N)cc(C)c4C(F)(F)F)c(Cl)cc23)C(C)C1 and answer again.
> 0.3 µM

And Cc1nc(N2CCC3(CC2)COC(C)C3N)c(CO)nc1Sc1ccnc(N)c1Cl (stereo not given) + C=CC(=O)N1CCN(c2nc(OCC3CCCN3C)nc3c(F)c(-c4nc(N)cc(C)c4C(F)(F)F)c(Cl)cc23)C(C)C1 ?
> 10 µM

Similarly, CC(C)NCC(C(=O)N1CCN(c2ncnc3c2C(C)CC3O)CC1)c1ccc(Cl)cc1 (stereo not given) + C=CC(=O)N1CCN(c2nc(OCC3CCCN3C)nc3c(F)c(-c4nc(N)cc(C)c4C(F)(F)F)c(Cl)cc23)C(C)C1 ?
> 10 µM

* * *

- Tested on: 521955-158-R2-J5-PDC complex spheroids, viability
- protocol.summary: Anticancer human tumor 521955-158-R2-J5-PDC cell line growth inhibition [RAS]; active = viability on the fitted dose curve at most 10% of control; inactive = the rest;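 further: compound exposure lasted seven days before the viability read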
- condition.label: second compound 0.000949 µM; first compound 10 µM
Bench note: report the call from 1 = active, -1 = inactive

Use these answered entries as a reference point.
compound="CC(C)NCC(C(=O)N1CCN(c2ncnc3c2C(C)CC3O)CC1)c1ccc(Cl)cc1 (stereo not drawn) + CCn1c(-c2cccnc2C(C)OC)c2c3cc(ccc31)N1CCOC(CC(NC(=O)C(C(C)C)N(C)C(=O)C3(F)CCN(C(=O)C#CC(C)(C)N(C)C)CC3)C(=O)N3CCCC(N3)C(=O)OCC(C)(C)C2)C1" group=-1
compound="NC1c2ccccc2OC12CCN(c1cnc3c(N4CCCc5ncccc54)n[nH]c3n1)CC2 (stereo not drawn) + CCn1c(-c2cc(N3CCN(C)CC3)cnc2C(C)OC)c2c3cc(ccc31)-c1csc(n1)CC(NC(=O)C1CC1C)C(=O)N1CCCC(N1)C(=O)OCC(C)(C)C2" group=-1
compound="CCC(CC)c1cc(NC2CCC(N)C2)n2nccc2n1 (stereo not drawn) + CCn1c(-c2cc(N3CCN(C)CC3)cnc2C(C)OC)c2c3cc(ccc31)-c1csc(n1)CC(NC(=O)C1CC1C)C(=O)N1CCCC(N1)C(=O)OCC(C)(C)C2" group=-1
compound="CC1(O)CCCC1n1c(=O)c(C(F)F)cc2cnc(NC3CCN(S(C)(=O)=O)CC3)nc21 (stereo not drawn) + CCn1c(-c2cccnc2C(C)OC)c2c3cc(ccc31)N1CCOC(CC(NC(=O)C(C(C)C)N(C)C(=O)C3(F)CCN(C(=O)C#CC(C)(C)N(C)C)CC3)C(=O)N3CCCC(N3)C(=O)OCC(C)(C)C2)C1" group=-1
compound="C[C@@H](NC(=O)c1ncnc(N)c1Cl)c1ncc(C(=O)Nc2cc(C(F)(F)F)c(Cl)cn2)s1 + CCn1c(-c2cc(N3CCN(C)CC3)cnc2C(C)OC)c2c3cc(ccc31)-c1csc(n1)CC(NC(=O)C1CC1C)C(=O)N1CCCC(N1)C(=O)OCC(C)(C)C2" group=-1
compound="CCC(CC)c1cc(NC2CCC(N)C2)n2nccc2n1 (stereo not drawn) + CCn1c(-c2cccnc2C(C)OC)c2c3cc(ccc31)N1CCOC(CC(NC(=O)C(C(C)C)N(C)C(=O)C3(F)CCN(C(=O)C#CC(C)(C)N(C)C)CC3)C(=O)N3CCCC(N3)C(=O)OCC(C)(C)C2)C1" group=1

Each compound tested received a call. Report the one for CC(=O)OC12COC1CC(O)C1(C)C(=O)C(O)C3=C(C)C(OC(=O)C(O)C(NC(=O)OC(C)(C)C)c4ccccc4)CC(O)(C(OC(=O)c4ccccc4)C21)C3(C)C (stereo not drawn) + CCn1c(-c2cccnc2C(C)OC)c2c3cc(ccc31)N1CCOC(CC(NC(=O)C(C(C)C)N(C)C(=O)C3(F)CCN(C(=O)C#CC(C)(C)N(C)C)CC3)C(=O)N3CCCC(N3)C(=O)OCC(C)(C)C2)C1 .
-1

# iterate: CC(=O)OC12COC1CC(O)C1(C)C(=O)C(O)C3=C(C)C(OC(=O)C(O)C(NC(=O)OC(C)(C)C)c4ccccc4)CC(O)(C(OC(=O)c4ccccc4)C21)C3(C)C (stereo not drawn) + CCn1c(-c2cc(N3CCN(C)CC3)cnc2C(C)OC)c2c3cc(ccc31)-c1csc(n1)CC(NC(=O)C1CC1C)C(=O)N1CCCC(N1)C(=O)OCC(C)(C)C2
-1
